Please respond with reported MIC for every item in the list.
Tested on: Candida albicans 3669
Assay: antifungal plate test procedure
Assay type: cell-based
Settings: Candida albicans, 3669, strain 3669; read-out: MIC
Description: The following represents the typical procedure used. Compound to be tested was placed on sterile dried 1/4" plate disks, and allowed to dry. Agar plates were seeded with fungi and allowed to solidify. The impregnated disks were placed on the seeded Agar surface and incubated for the time required for the particular culture. Results are expressed in MIC (μg/ml) to inhibit growth.
Give bare numbers, in µg/mL.

[
  {
    "COMPOUND": "CO[C@H]1C[C@@H]2CC[C@@H](C)[C@@](O)(O2)C(=O)C(=O)N2CCCC[C@H]2C(=O)O[C@H]([C@H](C)C[C@@H]2CC[C@@H](OC(=O)COCC(=O)O)[C@H](OC)C2)CC(=O)[C@H](C)/C=C(\\C)[C@@H](O)[C@@H](OC)C(=O)[C@H](C)C[C@H](C)/C=C/C=C/C=C/1C [Example 7, Rapamycin-42-hemi-3'-oxoglutarate]",
    "TARGET_UNDER_TEST": "Candida albicans 3669",
    "EXPERIMENTAL_RESULT": 0.2
  }
]

Field: next compound
q: Any idea what MIC was measured for CO[C@H]1C[C@@H]2CC[C@@H](C)[C@@](O)(O2)C(=O)C(=O)N2CCCC[C@H]2C(=O)O[C@H]([C@H](C)C[C@@H]2CC[C@@H](OC(=O)CCC(=O)OCc3ccccc3)[C@H](OC)C2)CC(=O)[C@H](C)/C=C(\C)[C@@H](OC(=O)CCC(=O)OCc2ccccc2)[C@@H](OC)C(=O)[C@H](C)C[C@H](C)/C=C/C=C/C=C/1C [Example 2, Rapamycin-31,42-bis(monobenzylsuccinate)] ?
a: 0.4
